Please provide measured Unique for the entries that follow.
Target: CD82 (mouse) (mouse, UniProt P40237)
Experiment: IP with anti CD82 antibodies, mouse muscle tissue, mass spectrometry
Answers are plain numbers.

The cases that follow already have their Unique on record.
>>> endpoint_result("LYZ1_MOUSE (enzyme) KVYNRCELARILKRNGMDGYRGVKLADWVCLAQHESNYNTRATNYNRGDRSTDYGIFQINSRYWCNDGKTPRSKNACGINCSALLQDDITAAIQCAKRVVRDPQGIRAWVAWRTQCQNRDLSQYIRNCGV")
1
>>> endpoint_result("PRDX1_MOUSE (enzyme) SSGNAKIGYPAPNFKATAVMPDGQFKDISLSEYKGKYVVFFFYPLDFTFVCPTEIIAFSDRADEFKKLNCQVIGASVDSHFCHLAWINTPKKQGGLGPMNIPLISDPKRTIAQDYGVLKADEGISFRGLFIIDDKGILRQITINDLPVGRSVDEIIRLVQAFQFTDKHGEVCPAGWKPGSDTIKPDVNKSKEYFSKQK")
2

Continue with the next binder.
So for IGG2B_MOUSE (other) KTTPPSVYPLAPGCGDTTGSSVTLGCLVKGYFPESVTVTWNSGSLSSSVHTFPALLQSGLYTMSSSVTVPSSTWPSQTVTCSVAHPASSTTVDKKLEPSGPISTINPCPPCKECHKCPAPNLEGGPSVFIFPPNIKDVLMISLTPKVTCVVVDVSEDDPDVQISWFVNNVEVHTAQTQTHREDYNSTIRVVSTLPIQHQDWMSGKEFKCKVNNKDLPSPIERTISKIKGLVRAPQVYILPPPAEQLSRKDVSLTCLVVGFNPGDISVEWTSNGHTEENYKDTAPVLDSDGSYFIYSKLNMKTSKWEKTDSFSCNVRHEGLKNYYLKKTISRSPGK , the logged Unique turned out to be 1

The measured values listed here are drawn from patent US20220119489A1.
